experiment: method code SF-AS, from DOI: 10.1002/(sici)1521-3838(199801)17:01<01::aid-qsar1>3.0.co;2-a
Kindly return condition met if reported logP is no lower than 4; return condition not met if it is lower.

| Input Smiles | Category |
| --- | --- |
| O=C(Nc1ncc([N+](=O)[O-])s1)c1ccccc1 | condition not met |
| O=C(Nc1ncc([N+](=O)[O-])s1)c1ccccc1Br | condition not met |
| O=C(Nc1ncc([N+](=O)[O-])s1)c1ccc(Cl)c(Cl)c1 | condition met |
| O=C(Nc1ncc([N+](=O)[O-])s1)c1ccc(Br)cc1 | condition not met |
| O=C(Nc1ncc([N+](=O)[O-])s1)c1ccc(Cl)cc1Cl | condition not met |
| O=C(Nc1ncc([N+](=O)[O-])s1)c1cc(Br)ccc1Br | condition not met |
| O=C(Nc1ncc([N+](=O)[O-])s1)c1cccc(Cl)c1 | condition not met |
| O=C(Nc1ncc([N+](=O)[O-])s1)c1cc(Cl)cc(Cl)c1 | condition met |

Req: Does O=C(Nc1ncc([N+](=O)[O-])s1)c1cccc(Br)c1 have a reported logP of at least 4?
Resp: condition not met

----------
A collection of molecules and their measured logP
API doc: respond with a numeric literal and nothing else, no unit.

Consider the worked cases shown below.
| Input Smiles | logP |
| --- | --- |
| O=C(Nc1ncc([N+](=O)[O-])s1)c1ccc(F)cc1 | 3.12 |
| CC(=O)Oc1ccccc1C(=O)Nc1ncc([N+](=O)[O-])s1 | 2.41 |
| O=C(Nc1ncc([N+](=O)[O-])s1)c1c(F)cccc1Cl | 3 |
| O=C(Nc1ncc([N+](=O)[O-])s1)c1ccccc1F | 2.71 |
| O=C(Nc1ncc([N+](=O)[O-])s1)c1cc(Cl)ccc1Cl | 3.57 |

Proceed to the following item.
Req: Please look at this molecule and report its logP: O=C(Nc1ncc([N+](=O)[O-])s1)c1c(F)cccc1F
Resp: 2.44
